test: self-splicing fitness, log relative to wild type (ln ratio); higher = more splicing; Tetrahymena group I intron in knt gene, E. coli kanamycin selection, DiMSum; sequences stand for … in CUCUCU…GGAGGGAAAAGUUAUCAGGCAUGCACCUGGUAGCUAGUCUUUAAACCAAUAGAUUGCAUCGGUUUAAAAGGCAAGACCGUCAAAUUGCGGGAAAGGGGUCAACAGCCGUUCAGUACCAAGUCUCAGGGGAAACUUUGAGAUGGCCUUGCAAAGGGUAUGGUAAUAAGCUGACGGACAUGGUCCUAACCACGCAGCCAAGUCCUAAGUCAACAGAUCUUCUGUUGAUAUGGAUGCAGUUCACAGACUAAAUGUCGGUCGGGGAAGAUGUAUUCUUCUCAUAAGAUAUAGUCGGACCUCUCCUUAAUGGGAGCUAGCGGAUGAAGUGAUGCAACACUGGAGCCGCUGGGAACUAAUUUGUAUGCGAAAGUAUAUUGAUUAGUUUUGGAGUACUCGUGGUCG; details: 30 °C;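 note: selection with 25 µg/mL kanamycin versus none on LB agar overnight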
# binning rule on self-splicing fitness (ln): lower bin (below -3), middle bin (-3 to below -2), upper bin (-2 or more)

{"SEQ_TEXT": "UGUCAGCAAUAUUACGUACA", "ASSIGNED_LABEL": "upper bin"}
{"SEQ_TEXT": "AAGUAGCAAUAUUACGCCUG", "ASSIGNED_LABEL": "upper bin"}
{"SEQ_TEXT": "AAUGAGCAAUAUUACGGCAC", "ASSIGNED_LABEL": "middle bin"}
{"SEQ_TEXT": "UUCUAGCAAUAUUACGUGGA", "ASSIGNED_LABEL": "upper bin"}
{"SEQ_TEXT": "UCAAAGCAAUAUUACGGAAA", "ASSIGNED_LABEL": "middle bin"}
{"SEQ_TEXT": "AGCUAGCAAUAUUACGCCGA", "ASSIGNED_LABEL": "upper bin"}
{"SEQ_TEXT": "AUUAAGCAAUAUUACGGCAA", "ASSIGNED_LABEL": "upper bin"}
{"SEQ_TEXT": "UCUAAGCAAUAUUACGAUUG", "ASSIGNED_LABEL": "lower bin"}
{"SEQ_TEXT": "AUGGAGCAAUAUUACGCAUA", "ASSIGNED_LABEL": "upper bin"}
{"SEQ_TEXT": "GAGCAGCAAUAUUACGCCCC", "ASSIGNED_LABEL": "middle bin"}
{"SEQ_TEXT": "CCACAGCAAUAUUACGCACU", "ASSIGNED_LABEL": "lower bin"}
{"SEQ_TEXT": "CGACAGCAAUAUUACGUGCA", "ASSIGNED_LABEL": "upper bin"}
{"SEQ_TEXT": "CCCUAGCAAUAUUACGCUGC", "ASSIGNED_LABEL": "lower bin"}
{"SEQ_TEXT": "UACAAGCAAUAUUACGUGUC", "ASSIGNED_LABEL": "lower bin"}
{"SEQ_TEXT": "AACAAGCAAUAUUACGGACU", "ASSIGNED_LABEL": "upper bin"}
{"SEQ_TEXT": "GCCUAGCAAUAUUACGCGCC", "ASSIGNED_LABEL": "middle bin"}
{"SEQ_TEXT": "GGCCAGCAAUAUUACGGAGA", "ASSIGNED_LABEL": "upper bin"}
{"SEQ_TEXT": "AUGCAGCAAUAUUACGGUGC", "ASSIGNED_LABEL": "lower bin"}
{"SEQ_TEXT": "CAGUAGCAAUAUUACGGUUA", "ASSIGNED_LABEL": "middle bin"}
{"SEQ_TEXT": "GAGCAGCAAUAUUACGUGUU", "ASSIGNED_LABEL": "lower bin"}
{"SEQ_TEXT": "GGAUAGCAAUAUUACGGGUC", "ASSIGNED_LABEL": "lower bin"}
{"SEQ_TEXT": "CGAGAGCAAUAUUACGGUCC", "ASSIGNED_LABEL": "middle bin"}
{"SEQ_TEXT": "AGUGAGCAAUAUUACGCGCC", "ASSIGNED_LABEL": "middle bin"}
{"SEQ_TEXT": "UUACAGCAAUAUUACGACUC", "ASSIGNED_LABEL": "middle bin"}
{"SEQ_TEXT": "UAGUAGCAAUAUUACGCGGG", "ASSIGNED_LABEL": "lower bin"}
{"SEQ_TEXT": "CGGCAGCAAUAUUACGCGAG", "ASSIGNED_LABEL": "middle bin"}
{"SEQ_TEXT": "UGCCAGCAAUAUUACGGACA", "ASSIGNED_LABEL": "upper bin"}
{"SEQ_TEXT": "UAGCAGCAAUAUUACGACCA", "ASSIGNED_LABEL": "upper bin"}
{"SEQ_TEXT": "GUGAAGCAAUAUUACGCGUG", "ASSIGNED_LABEL": "upper bin"}
{"SEQ_TEXT": "ACGGAGCAAUAUUACGUCUU", "ASSIGNED_LABEL": "middle bin"}
{"SEQ_TEXT": "GGGCAGCAAUAUUACGGUCA", "ASSIGNED_LABEL": "upper bin"}
{"SEQ_TEXT": "UCUAAGCAAUAUUACGGCUA", "ASSIGNED_LABEL": "upper bin"}
{"SEQ_TEXT": "CGACAGCAAUAUUACGAUAC", "ASSIGNED_LABEL": "lower bin"}
{"SEQ_TEXT": "AGCUAGCAAUAUUACGUACG", "ASSIGNED_LABEL": "upper bin"}
{"SEQ_TEXT": "GUUUAGCAAUAUUACGCGGU", "ASSIGNED_LABEL": "middle bin"}
{"SEQ_TEXT": "AGGUAGCAAUAUUACGCCUU", "ASSIGNED_LABEL": "lower bin"}
{"SEQ_TEXT": "UCAUAGCAAUAUUACGAUGG", "ASSIGNED_LABEL": "lower bin"}
{"SEQ_TEXT": "GGAGAGCAAUAUUACGUGAG", "ASSIGNED_LABEL": "lower bin"}
{"SEQ_TEXT": "AGCGAGCAAUAUUACGGUUC", "ASSIGNED_LABEL": "middle bin"}
{"SEQ_TEXT": "GGCUAGCAAUAUUACGUUGA", "ASSIGNED_LABEL": "upper bin"}
{"SEQ_TEXT": "GAUCAGCAAUAUUACGGCUA", "ASSIGNED_LABEL": "upper bin"}
{"SEQ_TEXT": "UGAUAGCAAUAUUACGGACU", "ASSIGNED_LABEL": "upper bin"}
{"SEQ_TEXT": "UCGCAGCAAUAUUACGAAUG", "ASSIGNED_LABEL": "lower bin"}
{"SEQ_TEXT": "AGGCAGCAAUAUUACGACCC", "ASSIGNED_LABEL": "upper bin"}
{"SEQ_TEXT": "GCAAAGCAAUAUUACGUCAA", "ASSIGNED_LABEL": "lower bin"}
{"SEQ_TEXT": "UAUCAGCAAUAUUACGAAAG", "ASSIGNED_LABEL": "upper bin"}
{"SEQ_TEXT": "AAGCAGCAAUAUUACGCACG", "ASSIGNED_LABEL": "upper bin"}
{"SEQ_TEXT": "UGACAGCAAUAUUACGGAUG", "ASSIGNED_LABEL": "upper bin"}
{"SEQ_TEXT": "ACACAGCAAUAUUACGAGCG", "ASSIGNED_LABEL": "upper bin"}
{"SEQ_TEXT": "UCAGAGCAAUAUUACGUCGU", "ASSIGNED_LABEL": "middle bin"}
{"SEQ_TEXT": "UCGUAGCAAUAUUACGCCGG", "ASSIGNED_LABEL": "upper bin"}
{"SEQ_TEXT": "AGCAAGCAAUAUUACGAUCU", "ASSIGNED_LABEL": "upper bin"}
{"SEQ_TEXT": "UACUAGCAAUAUUACGUUAU", "ASSIGNED_LABEL": "lower bin"}
{"SEQ_TEXT": "CGUGAGCAAUAUUACGGGAG", "ASSIGNED_LABEL": "lower bin"}
{"SEQ_TEXT": "CCGUAGCAAUAUUACGGGUA", "ASSIGNED_LABEL": "middle bin"}
{"SEQ_TEXT": "UGCAAGCAAUAUUACGCGCC", "ASSIGNED_LABEL": "upper bin"}
{"SEQ_TEXT": "UUGAAGCAAUAUUACGUGUU", "ASSIGNED_LABEL": "lower bin"}
{"SEQ_TEXT": "UUAAAGCAAUAUUACGAUCC", "ASSIGNED_LABEL": "upper bin"}
{"SEQ_TEXT": "UAGUAGCAAUAUUACGCUCC", "ASSIGNED_LABEL": "middle bin"}
{"SEQ_TEXT": "UGGAAGCAAUAUUACGAGUG", "ASSIGNED_LABEL": "upper bin"}
{"SEQ_TEXT": "GGGCAGCAAUAUUACGAUGU", "ASSIGNED_LABEL": "lower bin"}
{"SEQ_TEXT": "UCUAAGCAAUAUUACGUGGA", "ASSIGNED_LABEL": "middle bin"}
{"SEQ_TEXT": "GUCAAGCAAUAUUACGCCGU", "ASSIGNED_LABEL": "middle bin"}
{"SEQ_TEXT": "UCUCAGCAAUAUUACGACGG", "ASSIGNED_LABEL": "upper bin"}
{"SEQ_TEXT": "UGAAAGCAAUAUUACGCCUC", "ASSIGNED_LABEL": "upper bin"}
